testSummary: yeast display, Sf9 membrane polyspecificity reagent, FACS + sequencing; frameworks hold sequencing errors
observedProperty: polyreactivity (PSR sort gate)

# example entries with known answers
[[record]]
seqtext = "QVQHVESGGGLVQAGGSLRLSCAASGSIFYIYAMGWYRQAPGKERELVASISRSGGSTYYADSVKGRFTISRDNAKNTVYLQMNSLKPEDTAVYYCAAVITFYRYPPGETYYYWGQGTQVTVSS"
observed = "high polyreactivity"

[[record]]
seqtext = "QVQLVESGGGLVQAGGSLRLSCAASGITFHRNAMGWYRQAPGKERELVAAITRGGSTYYADSVKGRFTISRDNAKNTVYLQMNSLKPEDTAVYYCNAYYWFGPGRDYWGQGTQVTVSS"
observed = "high polyreactivity"

[[record]]
seqtext = "QVQLVESGGGLVQAGGSLRLSCAASGSIFASYGLGWYRQAPGKARELVAAITSRGTSTYYADSVKGRFTISRDNAKNTVDLQMHSLKPEETAVYYCAARLYGSAPQHEYWGQGTQVTVSS"
observed = "low polyreactivity"

[[record]]
seqtext = "QVQLVDSGGGLVQAGGSLRLSCPASGSTIAWYDMGWYRQEPGKEREFVAAIDYGGGSTYADSVKGRFTISRDNAKNTVYLQMNSLKPDDTAVYYCNADYWVYLYDYWGQGTLVTVSS"
observed = "low polyreactivity"

[[record]]
seqtext = "QVQLVESGGGLVQAGGSLRLSCAASGFIFRYYTMGWYRQAPGKERELVATITSGGSTYYADSVKGRFTISCDNAKNTVYLQMNSLKPEDTAVYYCAKVRDVLWRFNYWGQGTQVTVSS"
observed = "high polyreactivity"


API: the following record is the query input.
Which value of polyreactivity (PSR sort gate) has been reported for "QVQHVESGGGLVQAGGSLRLSCAASGLIFSRYVMGWYRQAPGKERELVAAISRSGGSTYYADSVKGRFTISRDNAKNTVYLQMNSLKPEDTAVYYCNAGRRTGRYGYWGQGTQVTVSS" in the records?
high polyreactivity

###

testSummary: yeast display, Sf9 membrane polyspecificity reagent, FACS + sequencing; frameworks hold sequencing errors
observedProperty: polyreactivity (PSR sort gate)

# example entries with known answers
[[record]]
seqtext = "QVQLVESGGGLVQAGGSLRISCAASGSTIQQYAMGRYRQAPGKEREFVAAISWRGGRTYYADSVKGRFTISRDNAKNTVYLQMNSLKPEDTAVYYCAVDPSIYRLSAYYYDYWGQGTQVTVSS"
observed = "low polyreactivity"

[[record]]
seqtext = "QVQLVESGGGLVQAGGSLRLSCAASGSTYPYAMGWYRPAPGKERELVAAITWSGGNTYYADSVKGRFTISRDNAKNTVYLQMNSLKPEDTAVYYCAKSRYATQTDYNYWGQGTQVTVSS"
observed = "high polyreactivity"

[[record]]
seqtext = "QVQLVESAGGLVQAGGSLPLSCAASGSTFASNTMGWYRQAPGKERELVAAITQSGGTTYYADSVKGRFTISRDNAKNTVSLQMNSLKPEDTAVYYCATDVGYFYTVVGGYDYWGTGTQVTVSS"
observed = "low polyreactivity"

[[record]]
seqtext = "QVQLVESGGGLVQAGGSLRLSCAASGRIFRYYAMGWYSQAPGQDRELVAAISWSGGSTYYADSVKGRFTISRDKAKNTVYLQMHSLKPEDTAVYYCNKVPLGLEGDYWGQGTQVTVSS"
observed = "high polyreactivity"

[[record]]
seqtext = "QVQLVESGGGLVQAGGSLRLSCAATGFTFIPYAMGWYRQAPGKERELVAGITIGGRTNNADSVKGRFTISRDNAKNTVYLQMNSLKPEDTAVYYCNAGVYLYVTSKYWYYYWGQGTQVTVSS"
observed = "high polyreactivity"


API: the following record is the query input.
Which value of polyreactivity (PSR sort gate) has been reported for "QVQLVESGGGLVQAGGSLRLSCAASGFIFYPYAMGWYRQAPGKERELVAVIRWSGGRTYYADSVKGRFTISRDNAKNTVYLQMNSLKPEDTSVYYCNARKITRYAVGPRKLGDYWGQGTQVTVTS" in the records?
high polyreactivity
